Target: human mGluR7 (Homo sapiens, UniProt Q14831)
Sequence (Q14831 35-915): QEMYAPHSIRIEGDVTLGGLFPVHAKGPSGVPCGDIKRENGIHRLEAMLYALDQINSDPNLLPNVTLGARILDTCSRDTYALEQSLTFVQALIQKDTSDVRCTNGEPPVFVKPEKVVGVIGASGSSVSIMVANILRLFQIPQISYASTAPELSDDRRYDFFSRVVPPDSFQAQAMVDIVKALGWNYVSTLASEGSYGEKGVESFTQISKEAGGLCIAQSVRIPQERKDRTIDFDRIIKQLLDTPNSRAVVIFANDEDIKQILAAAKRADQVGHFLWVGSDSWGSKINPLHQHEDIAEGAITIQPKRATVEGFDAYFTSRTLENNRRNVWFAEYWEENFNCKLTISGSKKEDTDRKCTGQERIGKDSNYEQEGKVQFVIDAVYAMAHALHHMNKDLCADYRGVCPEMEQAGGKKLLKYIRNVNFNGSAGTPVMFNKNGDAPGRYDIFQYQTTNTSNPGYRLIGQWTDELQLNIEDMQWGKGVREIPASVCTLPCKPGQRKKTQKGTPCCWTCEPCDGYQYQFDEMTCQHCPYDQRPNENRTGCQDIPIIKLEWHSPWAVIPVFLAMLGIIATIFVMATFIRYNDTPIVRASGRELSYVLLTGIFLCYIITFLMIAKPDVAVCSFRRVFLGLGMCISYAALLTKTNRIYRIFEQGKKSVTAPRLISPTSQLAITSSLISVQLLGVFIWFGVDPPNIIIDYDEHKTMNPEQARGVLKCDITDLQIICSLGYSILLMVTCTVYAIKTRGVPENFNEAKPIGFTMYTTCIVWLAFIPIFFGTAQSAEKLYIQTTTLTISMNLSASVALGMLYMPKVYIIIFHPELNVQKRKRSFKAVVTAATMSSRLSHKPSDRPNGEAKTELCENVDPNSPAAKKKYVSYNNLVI
Test: mGluR7 assay: CRE-directed luciferase reporter gene assay, reduction of forskolin stimulated cAMP production
Settings: stable CHO cell line expressing the CRE-luc reporter and human mGluR7 genes; decrease of forskolin stimulated luminescence; 10-point concentration-response, duplicate wells
ENDPOINT_NAME: EC50 (nM)

• C[C@H](C(=O)N[C@H]1Cc2ccccc2[C@@H]1NCC1CCC1)c1ccc(F)cc1F [Example 90] = 10
• COC1c2ccccc2CC1NC(=O)[C@@H](NCC1CC1)c1ccc(F)cc1 (single isomer, unassigned) [Example 56] = 1
• C[C@H](C(=O)N[C@H]1Cc2ccccc2[C@@H]1NCC1CC1)c1ccc(F)cc1 [Example 47] = 21
• C[C@H](C(=O)N[C@H]1Cc2ccccc2[C@@H]1NCC(F)(F)F)c1ccc(F)cc1F [Example 59] = 7
• CCS(=O)(=O)C1c2ccccc2CC1NC(=O)[C@@H](OC)c1ccccc1 (stereo in doubt) [Example 150] = 156
• CCC(C(=O)N[C@H]1Cc2ccccc2[C@@H]1N)c1ccc(F)cc1F (single isomer, unassigned) [Example 15] = 25
• COC1c2ccccc2CC1NC(=O)C(c1ccc(F)cc1)n1ncccc1=O (single isomer, unassigned) [Example 130] = 148
• N[C@H]1c2ccccc2C[C@@H]1NC(=O)C(c1ccc(F)cc1)N1CC(F)C1 (single isomer, unassigned) [Example 118] = 2870
• C[C@@H](C(=O)NC1Cc2ccccc2C1O)c1ccccc1 (stereo in doubt) [Example 1] = 559
• CC(C)(C(=O)N[C@H]1Cc2ccccc2[C@@H]1N)c1ccc(F)cc1 [Example 99] = 2190
• CS(=O)(=O)C1c2ccccc2CC1NC(=O)C(OCC1CC1)c1ccccc1 (single isomer, unassigned) [Example 147] = 39
• C[C@H](C(=O)N[C@@H]1Cc2ccccc2[C@H]1N)c1ccc(F)cc1F [Example 35] = 233
• CC(=O)N[C@H]1c2ccccc2C[C@@H]1NC(=O)[C@@H](C)c1ccccc1 [Example 13] = 1200
• C[C@H](C(=O)NC1Cc2ccccc2C1N1CCCC1)c1ccccc1 (mixture of isomers) [Example 78] = 322
• CC(C)(C)OC(=O)N[C@H]1c2ccccc2C[C@@H]1NC(=O)C1(c2ccccc2)CC(=O)C1 [Example 123] = 68
• N[C@H]1c2ccccc2C[C@@H]1NC(=O)C(c1ccc(F)cc1F)n1ncccc1=O (single isomer, unassigned) [Example 110] = 1150
• COC1c2ccccc2CC1NC(=O)[C@@H](NC(=O)C1CC1)c1ccc(F)cc1 (single isomer, unassigned) [Example 101] = 6
• N[C@H]1c2ccccc2C[C@@H]1NC(=O)C(c1ccc(F)cc1F)n1ccccc1=O (single isomer, unassigned) [Example 51] = 565
• CO[C@H](C(=O)NC1Cc2ccccc2C1S(C)(=O)=O)c1ccccc1 (stereo in doubt) [Example 149] = 225
• CC(C)(C)OC(=O)N[C@H]1c2ccccc2C[C@@H]1NC(=O)C1(c2ccc(F)cc2)CCOCC1 [Example 94] = 46
• CC(C(=O)N[C@H]1Cc2ccccc2[C@@H]1N)c1ccc(Cl)cc1 (single isomer, unassigned) [Example 70] = 956
• CC[C@H](C(=O)N[C@H]1Cc2ccccc2[C@@H]1N)c1ccc(F)cc1 [Example 52] = 53
